Listed below: MIC values for each entry.
Test system: Staphylococcus aureus
Experiment: Minimum inhibitory concentration against methicillin-resistant Staphylococcus aureus (MRSA) A27223 in the presence of 50% calf serum.
Assay type: functional
Numbers only; they are read as µg/mL.

| smiles notation | MIC, µg/mL |
| --- | --- |
| Cl.NCCC[n+]1ccc(SCC2=C(C(=O)O)N3C(=O)[C@@H](NC(=O)CSc4cc(Cl)ccc4Cl)[C@H]3SC2)cc1.[Cl-] | 2 |
| CCCC[n+]1c(C)cc(SCC2=C(C(=O)[O-])N3C(=O)[C@@H](NC(=O)CSc4cc(Cl)ccc4Cl)[C@H]3SC2)cc1CCC(=O)O | 8 |

Could you now consider this next compound?
Prompt line: Which measured MIC value corresponds to NCCC[n+]1ccc(SCC2=C(C(=O)O)N3C(=O)[C@@H](NC(=O)CSc4cc(Cl)nc(Cl)c4)[C@H]3SC2)cc1CCCC(=O)O.O=C(O)C(F)(F)F.O=C([O-])C(F)(F)F ?
Response line: 4

Values from ChEMBL document CHEMBL1134236
